Ref: ChEMBL document CHEMBL2406913

Record form. Attribute: inhibition at 50 µM. Fill in for each entry.
# System: HL-60
# test: Antiinflammatory activity in human HL-60 derived macrophage-like cells assessed as inhibition of LPS-induced TNFalpha production at 50 uM treated 30 mins before LPS stimulation measured after 24 hrs by ELISA
# Type: functional
Numbers only, in %.

Nc1nc(-c2cccc([N+](=O)[O-])c2)nc2nc3c(Cl)ccc(Cl)c3nc12; 0

Provide each entry's inhibition at 50 µM from the list below.
1. C[S+]([O-])c1ccc(-c2nc(-c3ccncc3)c(-c3ccc(F)cc3)[nH]2)cc1 (stereo not given) [SB-203580]
2. Nc1nc(-c2ccc(C(F)(F)F)cc2)nc2nc3c(Cl)ccc(Cl)c3nc12
3. Cc1ccc(-c2nc(N)c3nc4c(Cl)ccc(Cl)c4nc3n2)cc1F
4. Nc1nc(-c2ccccc2)nc2nc3c(Cl)ccc(Cl)c3nc12
5. Cc1cccc(-c2nc(N)c3nc4c(Cl)ccc(Cl)c4nc3n2)c1
6. Nc1nc(-c2ccc(Cl)cc2)nc2nc3c(Cl)ccc(Cl)c3nc12
7. Nc1nc(-c2cc(C(F)(F)F)cc(C(F)(F)F)c2)nc2nc3c(Cl)ccc(Cl)c3nc12
8. Nc1ccc(-c2nc(N)c3nc4c(Cl)ccc(Cl)c4nc3n2)cc1

Ans:
[68.1, 67.2, 80, 75.2, 100, 6.7, 99.7, 63.2]

inhibition at 50 µM recorded for this compound, Cc1ccc(-c2nc(N)c3nc4c(Cl)ccc(Cl)c4nc3n2)cc1 , is 87.4

====

# System: HL-60
# test: Cytotoxicity against human HL-60 derived macrophage-like cells at 50 uM after 1 hr by MTT assay
# Type: cell-based
# measurementSetup: hl-60, 1 h
assayEndpoint: Activity

Nc1nc(-c2cccc([N+](=O)[O-])c2)nc2nc3c(Cl)ccc(Cl)c3nc12; 1.5%
Nc1ccc(-c2nc(N)c3nc4c(Cl)ccc(Cl)c4nc3n2)cc1; 15.7%
Cc1ccc(-c2nc(N)c3nc4c(Cl)ccc(Cl)c4nc3n2)cc1F; 1.8%
C[S+]([O-])c1ccc(-c2nc(-c3ccncc3)c(-c3ccc(F)cc3)[nH]2)cc1 (stereo not given); 0%

Provide each entry's Activity from the list below.
1. Nc1nc(-c2ccc(Cl)cc2)nc2nc3c(Cl)ccc(Cl)c3nc12
2. Cc1ccc(-c2nc(N)c3nc4c(Cl)ccc(Cl)c4nc3n2)cc1
3. Nc1nc(-c2ccc(C(F)(F)F)cc2)nc2nc3c(Cl)ccc(Cl)c3nc12
4. Nc1nc(-c2ccccc2)nc2nc3c(Cl)ccc(Cl)c3nc12
5. Nc1nc(-c2cc(C(F)(F)F)cc(C(F)(F)F)c2)nc2nc3c(Cl)ccc(Cl)c3nc12
6. Cc1cccc(-c2nc(N)c3nc4c(Cl)ccc(Cl)c4nc3n2)c1

Ans:
1: 2.5%; 2: 3.9%; 3: 0%; 4: 13%; 5: 0%; 6: 0.2%
